# study system: aromatase (CYP19) (Homo sapiens, UniProt P11511)
# Sequence (P11511 whole entry): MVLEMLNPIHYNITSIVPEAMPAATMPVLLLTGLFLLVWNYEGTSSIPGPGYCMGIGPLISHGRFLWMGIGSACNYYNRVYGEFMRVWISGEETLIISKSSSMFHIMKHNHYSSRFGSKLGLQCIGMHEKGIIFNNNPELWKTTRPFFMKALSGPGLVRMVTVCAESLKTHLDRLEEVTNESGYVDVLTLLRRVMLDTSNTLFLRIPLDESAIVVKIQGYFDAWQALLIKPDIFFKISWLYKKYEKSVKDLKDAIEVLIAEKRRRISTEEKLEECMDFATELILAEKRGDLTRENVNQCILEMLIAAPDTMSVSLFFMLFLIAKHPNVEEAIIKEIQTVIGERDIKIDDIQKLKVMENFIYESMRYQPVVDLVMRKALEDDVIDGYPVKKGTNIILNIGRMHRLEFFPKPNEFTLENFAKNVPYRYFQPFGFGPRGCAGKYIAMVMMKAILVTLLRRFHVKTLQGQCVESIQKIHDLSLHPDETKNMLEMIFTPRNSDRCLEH
assay endpoint: IC50 (µM)

INSERT INTO measurements (molecule, unit_of_measure, reported_result) VALUES
  ('OC(Cn1cncn1)(Cn1ccc2ccccc21)c1ccc(F)cc1F (stereo not shown) [Compound 11d]', 'µM', 3.58);

###

# study system: aromatase (CYP19) (Homo sapiens)
# Construct: Microsomal protein (0.1 mg) was added to start the reaction; from tissue; host or cells: microsomes; ('human placental microsomes')
# protocol details: In vitro inhibition of aromatase
# Format: biochemical
# condition set: at 36 µM
assay endpoint: inhibition at 36 µM (%)

INSERT INTO assay_data (compound, assay_endpoint, reported_result) VALUES
  ('O[C@@](Cn1cncn1)(Cn1ccc2ccccc21)c1ccc(Cl)cc1Cl [(+)-(R)-8g]', 'inhibition at 36 µM', 51),
  ('OC(Cn1cncn1)(Cn1ccc2ccccc21)c1ccc(Cl)cc1Cl (stereo not shown)', 'inhibition at 36 µM', 27),
  ('OC(Cn1cncn1)(Cn1ccc2ccccc21)c1ccc(F)cc1F (stereo not shown) [Compound 11d]', 'inhibition at 36 µM', 89),
  ('O[C@](Cn1cncn1)(Cn1ccc2ccccc21)c1ccc(Cl)cc1Cl [(−)-(S)-8g]', 'inhibition at 36 µM', 72);

###

# Tested on: ATCC90018 Candida parapsilosis strain
# protocol details: Anti-Candida in vitro assay, ATCC90018
# Type: cell-based
# condition set: Lodderomyces parapsilosis; Candida parapsilosis ATCC90018, mean of triplicate; read-out: MIC (IC80) ATCC90018
assay endpoint: MIC

INSERT INTO results (compound, assay_endpoint, reported_result) VALUES
  ('OC(Cn1ccnc1)(Cn1ccc2ccccc21)c1ccc(F)cc1 (stereo not shown)', 'MIC', '2.11 µg/mL'),
  ('OC(Cn1ccnc1)(Cn1ccc2ccccc21)c1ccc(Br)cc1 (stereo not shown)', 'MIC', '1.84 µg/mL'),
  ('OC(Cn1cncn1)(Cn1ccc2ccccc21)c1ccc(F)cc1F (stereo not shown) [Compound 11d]', 'MIC', '0.201 µg/mL'),
  ('O[C@@](Cn1cncn1)(Cn1ccc2ccccc21)c1ccc(Cl)cc1Cl [(+)-(R)-8g]', 'MIC', '> 38.7 µg/mL'),
  ('OC(Cn1ccnc1)(Cn1ccc2ccccc21)c1ccc(F)cc1F (stereo not shown)', 'MIC', '0.614 µg/mL'),
  ('OC(Cn1cncn1)(Cn1ccc2ccccc21)c1ccc(Cl)cc1Cl (stereo not shown)', 'MIC', '0.15 µg/mL'),
  ('OC(Cn1ccnc1)(Cn1ccc2ccccc21)c1ccc(Cl)cc1 (stereo not shown)', 'MIC', '1.3 µg/mL'),
  ('OC(Cn1cncn1)(Cn1ccc2ccccc21)c1ccc(Cl)cc1 (stereo not shown) [Compound 11b]', 'MIC', '2.05 µg/mL'),
  ('OC(Cn1ccnc1)(Cn1ccc2ccccc21)c1ccc(Cl)cc1Cl (stereo not shown)', 'MIC', '0.24 µg/mL'),
  ('CC(=O)N1CCN(c2ccc(OCC3COC(Cn4ccnc4)(c4ccc(Cl)cc4Cl)O3)cc2)CC1 (stereo not shown) [KTC, ketoconazole, reference compound]', 'MIC', '0.064 µg/mL'),
  ('Cc1cn(CC(O)(Cn2cncn2)c2ccc(Cl)cc2Cl)c2ccccc12 (stereo not shown) [Compound 11i]', 'MIC', '0.245 µg/mL'),
  ('OC(Cn1cncn1)(Cn1ccc2ccccc21)c1ccc(Br)cc1 (stereo not shown) [Compound 11c]', 'MIC', '2.03 µg/mL'),
  ('Cc1cc2ccccc2n1CC(O)(Cn1cncn1)c1ccc(Cl)cc1Cl (stereo not shown) [Compound 11g]', 'MIC', '> 40 µg/mL'),
  ('O[C@](Cn1cncn1)(Cn1ccc2ccccc21)c1ccc(Cl)cc1Cl [(−)-(S)-8g]', 'MIC', '0.027 µg/mL'),
  ('OC(Cn1ccnc1)(Cn1ccc2ccccc21)c1ccc(C(F)(F)F)cc1 (stereo not shown) [Compound 11e]', 'MIC', '2.47 µg/mL'),
  ('Cc1cc2ccccc2n1CC(O)(Cn1cncn1)c1ccc(F)cc1F (stereo not shown) [Compound 11f]', 'MIC', '2.5 µg/mL'),
  ('OC(Cn1cncn1)(Cn1ccc2ccccc21)c1ccc(F)cc1 (stereo not shown) [Compound 11a]', 'MIC', '2.52 µg/mL'),
  ('OC(Cn1cncn1)(Cn1ccc2ccccc21)c1ccc(C(F)(F)F)cc1 (stereo not shown)', 'MIC', '2 µg/mL'),
  ('Cc1c(C)n(CC(O)(Cn2cncn2)c2ccc(Cl)cc2Cl)c2ccccc12 (stereo not shown) [Compound 11k]', 'MIC', '9.76 µg/mL'),
  ('Cc1cn(CC(O)(Cn2cncn2)c2ccc(F)cc2F)c2ccccc12 (stereo not shown) [Compound 11h]', 'MIC', '0.309 µg/mL'),
  ('Cc1c(C)n(CC(O)(Cn2cncn2)c2ccc(F)cc2F)c2ccccc12 (stereo not shown) [Compound 11j]', 'MIC', '4.01 µg/mL'),
  ('OC(Cn1cncn1)(Cn1cncn1)c1ccc(F)cc1F [FLC, fluconazole, reference compound]', 'MIC', '0.6 µg/mL');
